In this section we review reported total protein half-life in vivo values for a set of sequences.
experiment: total protein half-life in vivo (active degradation + dilution); higher = more stable protein; settings: wild type E. coli NCM3722; growth: C-lim chemostat; doubling time 3 h
State just the number; it will be interpreted in h.

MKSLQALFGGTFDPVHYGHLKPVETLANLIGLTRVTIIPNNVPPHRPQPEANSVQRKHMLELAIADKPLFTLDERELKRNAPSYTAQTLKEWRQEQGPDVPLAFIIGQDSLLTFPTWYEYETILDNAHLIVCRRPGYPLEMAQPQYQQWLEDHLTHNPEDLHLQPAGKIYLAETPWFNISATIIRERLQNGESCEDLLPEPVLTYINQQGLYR [P0A752]    3.34

Please turn your attention to the following entry.
What value of total protein half-life in vivo has been reported for the following sequence? `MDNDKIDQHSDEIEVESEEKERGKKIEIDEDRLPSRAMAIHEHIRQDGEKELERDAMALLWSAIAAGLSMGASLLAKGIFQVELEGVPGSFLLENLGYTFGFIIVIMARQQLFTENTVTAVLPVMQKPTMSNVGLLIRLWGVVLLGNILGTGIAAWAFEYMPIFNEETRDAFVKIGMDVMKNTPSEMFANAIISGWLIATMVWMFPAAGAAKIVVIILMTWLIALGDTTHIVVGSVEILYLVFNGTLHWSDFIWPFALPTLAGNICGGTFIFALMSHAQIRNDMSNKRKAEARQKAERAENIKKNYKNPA`
3.47

----------
Entries and their total protein half-life in vivo values follow.
test: total protein half-life in vivo (active degradation + dilution); higher = more stable protein; details: wild type E. coli NCM3722; growth: C-lim chemostat; doubling time 3 h
Field format: number, assumed h, no unit text.

Example cases with answers are listed next.
MIEADRLISAGTTLPEDVADRAIRPKLLEEYVGQPQVRSQMEIFIKAAKLRGDALDHLLIFGPPGLGKTTLANIVANEMGVNLRTTSGPVLEKAGDLAAMLTNLEPHDVLFIDEIHRLSPVVEEVLYPAMEDYQLDIMIGEGPAARSIKIDLPPFTLIGATTRAGSLTSPLRDRFGIVQRLEFYQVPDLQYIVSRSARFMGLEMSDDGALEVARRARGTPRIANRLLRRVRDFAEVKHDGTISADIAAQALDMLNVDAEGFDYMDRKLLLAVIDKFFGGPVGLDNLAAAIGEERETIEDVLEPYLIQQGFLQRTPRGRMATTRAWNHFGITPPEMP [P0A812]    2.35
MTTKRKPYVRPMTSTWWKKLPFYRFYMLREGTAVPAVWFSIELIFGLFALKNGPEAWAGFVDFLQNPVIVIINLITLAAALLHTKTWFELAPKAANIIVKDEKMGPEPIIKSLWAVTVVATIVILFVALYW [P0A8Q0]    2.81

Consider now this further sequence.
# input sequence: `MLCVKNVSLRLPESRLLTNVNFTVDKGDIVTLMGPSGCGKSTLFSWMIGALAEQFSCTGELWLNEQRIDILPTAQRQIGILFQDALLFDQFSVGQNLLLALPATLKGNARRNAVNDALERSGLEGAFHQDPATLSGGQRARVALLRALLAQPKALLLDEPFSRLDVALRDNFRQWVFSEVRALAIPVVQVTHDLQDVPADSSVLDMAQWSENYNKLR` ; wanted: its total protein half-life in vivo
3.11

----------
Here the recorded total protein half-life in vivo is given for each entry.
test: total protein half-life in vivo (active degradation + dilution); higher = more stable protein; settings: E. coli NCM3722 delta-smpB; growth: N-lim chemostat; doubling time 6 h
Give just the numeric value; h need not be written.

MSKNYHIAVLPGDGIGPEVMTQALKVLDAVRNRFAMRITTSHYDVGGAAIDNHGQPLPPATVEGCEQADAVLFGSVGGPKWEHLPPDQQPERGALLPLRKHFKLFSNLRPAKLYQGLEAFCPLRADIAANGFDILCVRELTGGIYFGQPKGREGSGQYEKAFDTEVYHRFEIERIARIAFESARKRRHKVTSIDKANVLQSSILWREIVNEIATEYPDVELAHMYIDNATMQLIKDPSQFDVLLCSNLFGDILSDECAMITGSMGMLPSASLNEQGFGLYEPAGGSAPDIAGKNIANPIAQILSLALLLRYSLDADDAACAIERAINRALEEGIRTGDLARGAAAVSTDEMGDIIARYVAEGV    2.53
MNEFSILCRVLGSLYYRQPQDPLLVPLFTLIREGKLAANWPLEQDELLTRLQKSCDMTQVSADYNALFIGDECAVPPYRSAWVEGATEAEVRAFLSERGMPLADTPADHIGTLLLAASWLEDQSTEDESEALETLFSEYLLPWCGAFLGKVEAHATTPFWRTMAPLTRDAISAMWDELEEDSEE    5.24

Let's switch to this sequence now.
Query (sequence): `MSNWPYPRIVAHRGGGKLAPENTLASIDVGAKYGHKMIEFDAKLSKDGEIFLLHDDNLERTSNGWGVAGELNWQDLLRVDAGSWYSKMFKGEPLPLLSQVAERCREHGMMANIEIKPTTGTGPLTGKMVALAARELWAGMTPPLLSSFEIDALEAAQQAAPELPRGLLLDEWRDDWRELTARLGCVSIHLNHKLLNKARVMQLKDAGLRILVYTVNKPQRAAELLRWGVDCICTDAIDVIGPNFTAQ` ; field requested: total protein half-life in vivo
3.72

----------
Listing of entries alongside the reported total protein half-life in vivo.
assay: total protein half-life in vivo (active degradation + dilution); higher = more stable protein; conditions: wild type E. coli NCM3722; growth: N-lim chemostat; doubling time 12 h
// units = h; emit number, no label

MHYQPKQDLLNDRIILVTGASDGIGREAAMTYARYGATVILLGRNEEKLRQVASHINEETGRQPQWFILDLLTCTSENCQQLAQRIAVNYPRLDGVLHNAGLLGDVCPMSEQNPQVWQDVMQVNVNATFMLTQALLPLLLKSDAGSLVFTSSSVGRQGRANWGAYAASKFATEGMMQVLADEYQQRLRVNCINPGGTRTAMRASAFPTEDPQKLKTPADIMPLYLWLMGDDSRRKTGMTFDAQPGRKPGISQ    5.92

Next up:
Query: total protein half-life in vivo; subject: MTLKELLVGFGTQVRSIWMIGLHAFAKRETRMYPEEPVYLPPRYRGRIVLTRDPDGEERCVACNLCAVACPVGCISLQKAETKDGRWYPEFFRINFSRCIFCGLCEEACPTTAIQLTPDFEMGEYKRQDLVYEKEDLLISGPGKYPEYNFYRMAGMAIDGKDKGEAENEAKPIDVKSLLP [P0AFD6]
15.2

----------
test: total protein half-life in vivo (active degradation + dilution); higher = more stable protein; conditions: E. coli NCM3722 delta-lon; growth: N-lim chemostat; doubling time 6 h
Rule: total protein half-life in vivo of 3 h or more gives true; anything lower gives false.

Say whether `MIQPISGPPPGQPPGQGDNLPSGTGNQPLSSQQRTSLESLMTKVTSLTQQQRAELWAGIRHDIGLSGDSPLLSRHFPAAEHNLAQRLLAAQKSHSARQLLAQLGEYLRLGNNRQAVTDYIRHNFGQTPLNQLSPEQLKTILTLLQEGKMVIPQPQQREATDRPLLPAEHNALKQLVTKLAAATGEPSKQIWQSMLELSGVKDGELIPAKLFNHLVTWLQARQTLSQQNTPTLESLQMTLKQPLDASELAALSAYIQQKYGLSAQSSLSSAQAEDILNQLYQRRVKGIDPRVMQPLLNPFPPMMDTLQNMATRPALWILLVAIILMLVWLVR` shows total protein half-life in vivo of 3 h or more.
true

Entry to check: `MSVRLVLAKGREKSLLRRHPWVFSGAVARMEGKASLGETIDIVDHQGKWLARGAYSPASQIRARVWTFDPSESIDIAFFSRRLQQAQKWRDWLAQKDGLDSYRLIAGESDGLPGITIDRFGNFLVLQLLSAGAEYQRAALISALQTLYPECSIYDRSDVAVRKKEGMELTQGPVTGELPPALLPIEEHGMKLLVDIQHGHKTGYYLDQRDSRLATRRYVENKRVLNCFSYTGGFAVSALMGGCSQVVSVDTSQEALDIARQNVELNKLDLSKAEFVRDDVFKLLRTYRDRGEKFDVIVMDPPKFVENKSQLMGACRGYKDINMLAIQLLNEGGILLTFSCSGLMTSDLFQKIIADAAIDAGRDVQFIEQFRQAADHPVIATYPEGLYLKGFACRVM`
true

Try `MIYIGLPQWSHPKWVRLGITSLEEYARHFNCVEGNTTLYALPKPEVVLRWREQTTDDFRFCFKFPATISHQAALRHCDDLVTEFLTRMSPLAPRIGQYWLQLPATFGPRELPALWHFLDSLPGEFNYGVEVRHPQFFAKGEEEQTLNRGLHQRGVNRVILDSRPVHAARPHSEAIRDAQRKKPKVPVHAVLTATNPLIRFIGSDDMTQNRELFQVWLQKLAQWHQTTTPYLFLHTPDIAQAPELVHTLWEDLRKTLPEIGAVPAIPQQSSLF` next.
true

Query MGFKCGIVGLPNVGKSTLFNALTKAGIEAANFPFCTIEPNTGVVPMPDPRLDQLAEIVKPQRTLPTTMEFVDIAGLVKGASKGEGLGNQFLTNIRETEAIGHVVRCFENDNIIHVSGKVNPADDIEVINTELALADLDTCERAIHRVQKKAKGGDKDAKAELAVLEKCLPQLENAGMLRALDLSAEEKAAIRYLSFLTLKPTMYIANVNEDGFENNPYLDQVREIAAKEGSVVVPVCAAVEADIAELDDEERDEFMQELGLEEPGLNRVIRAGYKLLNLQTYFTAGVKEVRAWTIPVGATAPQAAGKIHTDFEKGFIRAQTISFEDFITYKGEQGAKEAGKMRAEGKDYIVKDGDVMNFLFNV [P0ABU2] next
true

Okay, and `MHKAILNSDLIATKAGDVTVYNYDGETREYISTSNEYLAVGVGIPACSCLDAPGTHKAGYAICRSADFNSWEYVPDHRGETVYSTKTGESKEIKAPGDYPENTTTIAPLSPYDKWDGEKWVTDTEAQHSAAVDAAEAQRQSLIDAAMASISLIQLKLQAGRKLTQAETTRLNAVLDYIDAVTATDTSTAPDVIWPELPEA` ?
false

// same read-out, input: MMQHQVNVSARFNPETLERVLRVVRHRGFHVCSMNMAAASDAQNINIELTVASPRSVDLLFSQLNKLVDVAHVAICQSTTTSQQIRA [P0ADG1]
false
